# experimental_system: Cytochrome P450 2C9 (Homo sapiens)
# test_method_notes: qHTS Assay for Inhibitors and Substrates of Cytochrome P450 2C9 (AID 883); also: nearly all actives have a fitted effect of over 60% in size
# condition_set: recombinant CYP2C9, luciferin-H luminescence, 60 min; series mostly up to 57.1 µM
Records with an inconclusive call do not appear. The source made the active and inactive calls. Calls follow the shape of the dose curve; as a rule, active = well fitted inhibition curve with a large enough effect; inconclusive = small, poorly fitted or top-dose-only effect; inactive = no such curve, though single readings can be large or run the other way.
Classes to choose from: T (active), F (inactive)

Task item: Please state the recorded outcome for this compound: "CCCCCCCCC(=O)NCc1ccc(O)c(OC)c1"
Reply: T

Task item: Please state the recorded outcome for this compound: "c1ccc2nc(N3CCNCC3)ccc2c1"
Reply: F

Task item: Please state the recorded outcome for this compound: "Oc1ccc(Cl)cc1Sc1cc(Cl)ccc1O"
Reply: T

Task item: Please state the recorded outcome for this compound: CN1[C@@H]2CC[C@H]1CC(OC(=O)c1cc(Cl)cc(Cl)c1)C2 (some centres undefined)
Reply: F

---

# test_method_notes: Quantitative high throughput screen for delayed death inhibitors of the malarial parasite plastid, 96 hour incubation (AID 488745); also: nearly all actives have a fitted effect of over 70% in size; also: potency is read from the fitted curve at half-maximal effect
# condition_set: Plasmodium falciparum growth; series mostly up to 28.7 µM
Results filed as inconclusive are left out. Calls of active or inactive are those of the source. Calls come from the whole dose curve; as a rule, active = well fitted inhibition curve with a large enough effect; inconclusive = small, poorly fitted or top-dose-only effect, or effect the other way; inactive = no such curve, though single readings can be large or run the other way.
readout_kind: Potency

Completed entries (count: 5):
compound: c1ccc2nc(N3CCNCC3)ccc2c1
Potency: inactive
--
compound: CCCCCCCCC(=O)NCc1ccc(O)c(OC)c1
Potency: inactive
--
compound: O=C1NCN(c2ccccc2)C12CCN(CCCC(c1ccc(F)cc1)c1ccc(F)cc1)CC2
Potency: 3.7 µM (active)
--
compound: O=C(O)c1nn(Cc2ccc(Cl)cc2Cl)c2ccccc12
Potency: inactive
--
compound: COc1ccc(C(=O)N2CCCC2=O)cc1
Potency: inactive

We now examine a further compound.
Task item: Please report Potency for the following compound: CC(N)C(=O)OC(C)(C)Cc1ccc(Cl)cc1 (stereo unspecified)
Reply: inactive

---

# experimental_system: Estrogen receptor (Homo sapiens) (UniProt P03372)
# Sequence (P03372 whole entry, looked up): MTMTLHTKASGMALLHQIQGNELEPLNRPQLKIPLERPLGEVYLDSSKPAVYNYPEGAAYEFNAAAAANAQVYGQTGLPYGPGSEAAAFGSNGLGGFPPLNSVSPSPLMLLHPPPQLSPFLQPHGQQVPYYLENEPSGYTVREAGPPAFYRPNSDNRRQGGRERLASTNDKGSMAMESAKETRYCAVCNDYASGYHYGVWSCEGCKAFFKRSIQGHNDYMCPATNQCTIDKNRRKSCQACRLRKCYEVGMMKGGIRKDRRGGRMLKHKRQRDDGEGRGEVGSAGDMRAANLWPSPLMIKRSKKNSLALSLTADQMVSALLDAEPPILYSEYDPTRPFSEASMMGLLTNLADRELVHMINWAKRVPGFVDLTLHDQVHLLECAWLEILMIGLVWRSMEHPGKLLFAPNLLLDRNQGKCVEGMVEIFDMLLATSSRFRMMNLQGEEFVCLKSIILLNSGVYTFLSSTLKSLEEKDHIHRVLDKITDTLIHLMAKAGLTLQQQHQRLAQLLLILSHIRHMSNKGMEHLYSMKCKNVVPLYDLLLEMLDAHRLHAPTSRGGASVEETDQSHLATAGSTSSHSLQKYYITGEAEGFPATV
# test_method_notes: qHTS assay for small molecule antagonists of estrogen receptor alpha signaling (AID 588513); also: % is scaled to controls: 0 for no effect and ±100 for the full control effect
# condition_set: ER-alpha-UAS-bla HEK293, beta-lactamase ratio, antagonist mode; series mostly up to 76.9 µM
Inconclusive results are not listed. Calls of active or inactive are those of the source. Calls come from the whole dose curve; as a rule, active = well fitted curve in the direction sought with a large enough effect in the signal ratio, with a control signal flat (not every such curve was filed as active); inconclusive = small, poorly fitted or top-dose-only effect, or effect the other way, or a change in a side signal; inactive = no such curve, though single readings can be large or run the other way; the % refers to the signal ratio.
Classes to choose from: active, inactive

# example entries with known answers
compound: CCCCCCCCC(=O)NCc1ccc(O)c(OC)c1
group_label: inactive
--
compound: COP(=O)(OC)OC=C(Cl)Cl
group_label: inactive

Task item: Please state the recorded outcome for this compound: "CN(C)C(=S)SSC(=S)N(C)C"
Reply: inactive

Task item: Please state the recorded outcome for this compound: O=C(NC(=O)c1c(F)cccc1F)Nc1cc(Cl)c(OC(F)(F)C(F)C(F)(F)F)cc1Cl (stereo not given)
Reply: inactive

---

# Test system: SKOV3
# test_method_notes: Primary qHTS to identify gynecologic anti-cancer compounds using libraries of approved drugs and bioactive compounds (AID 1345084); also: % is scaled to controls: 0 for no effect and ±100 for the full control effect; nearly all actives have a fitted effect of over 55% in size
# condition_set: Gynecologic cancer cell panel viability, ATPlite luminescence, 48 h; series mostly up to 57.5 µM
Records with an inconclusive call do not appear. Calls of active or inactive are those of the source. The call rests on the fitted dose curve; in most records, active means well fitted cell-killing curve with a large enough effect; inconclusive means small, poorly fitted or top-dose-only effect, or effect the other way; inactive means flat fitted curve, though single readings scatter.
Classes to choose from: label 1 for active, label 0 for inactive

Task item: Please state the recorded outcome for this compound: "CCC(=O)C(CCN(C)C)(c1ccccc1)c1ccccc1"
Reply: label 0

---

// values below are reported Z-AUC
# test_method_notes: qHTS drug screen for cell cycle checkpoint inhibitors in PARPi-resistant BRCA-mutant ovarian cancer cell lines. (AID 1963452)
# condition_set: PEO1/OlaR viability, CellTiter-Glo luminescence, 96 h; measured here: PEO1 parental Z-AUC; stronger effect = lower value
Provide a numeric answer; units are not to be included.

Completed entries (count: 4):
smiles_repr: O=C(O)c1nn(Cc2ccc(Cl)cc2Cl)c2ccccc12
Z-AUC: 0.662
--
smiles_repr: C[C@@H]1O[C@@H](O[C@@H]2C=C3CC[C@@H]4[C@H](CC[C@]5(C)[C@@H](c6ccc(=O)oc6)CC[C@]45O)[C@@]3(C)CC2)[C@H](O)[C@H](O)[C@H]1O
Z-AUC: -2.52
--
smiles_repr: COc1ccc(C(=O)N2CCCC2=O)cc1
Z-AUC: 0.111
--
smiles_repr: C[C@@H]1C[C@@H]([C@H](O)CC2CC(=O)NC(=O)C2)C(=O)[C@@H](C)C1
Z-AUC: -0.0615

Task item: Please report Z-AUC for the following compound: "C[C@]12CC[C@H](O)CC1=CC[C@@H]1[C@@H]2CC[C@]2(C)C(=O)CC[C@@H]12"
Reply: 0.516

---

# condition_set: Ebola virus entry assay, reporter ratio channel; Channel type: primary
Activity calls are given as the source filed them.
Classes to choose from: active, inactive

molecule: CC1COC2(c3ccccc3Cl)c3cc(Cl)ccc3NC(=O)CN12 (stereo unspecified)
group_label: active
--
molecule: O=c1[nH]c2cc(C(F)(F)F)c(N3CCOCC3)cc2n(CP(=O)(O)O)c1=O
group_label: inactive
--
molecule: CC(=O)CCC(=O)O
group_label: inactive

Task item: Please state the recorded outcome for this molecule: CO[C@@H]1[C@@H](OC)[C@H](C)[C@@](O)(CC(=O)O)O[C@H]1[C@H](C)[C@H]1O[C@@]2(CC[C@@](C)([C@H]3CC[C@@](C)([C@@H]4O[C@@H]([C@H]5O[C@](C)(O)[C@H](C)C[C@@H]5C)C[C@@H]4OC4C[C@H](OC)[C@@H](OC)[C@H](C)O4)O3)O2)C[C@H](O)[C@H]1C (stereo partly specified)
Reply: active

Task item: Please state the recorded outcome for this molecule: COCCOC(=O)C1=C(C)NC(C)=C(C(=O)OC/C=C/c2ccccc2)C1c1cccc([N+](=O)[O-])c1 (stereo unspecified)
Reply: inactive

Task item: Please state the recorded outcome for this molecule: CC1Sc2c(C(=O)O)c(=O)c3cc(F)c(N4CCNCC4)cc3n21 (stereo unspecified)
Reply: inactive

Task item: Please state the recorded outcome for this molecule: "O=C1N(c2ccccc2)c2ccccc2C1(Cc1ccncc1)Cc1ccncc1"
Reply: inactive

Task item: Please state the recorded outcome for this molecule: "COc1ccc2c(c1OC)C(=O)O[C@@H]2[C@H]1c2c(cc3c(c2OC)OCO3)CCN1C"
Reply: inactive

Task item: Please state the recorded outcome for this molecule: "c1ccc(CN(CC2=NCCN2)c2ccccc2)cc1"
Reply: active

Task item: Please state the recorded outcome for this molecule: CCN(CC)C(C)C(=O)c1ccccc1 (stereo unspecified)
Reply: inactive

Task item: Please state the recorded outcome for this molecule: "C[C@H](CN1CCOCC1)C(C(=O)N1CCCC1)(c1ccccc1)c1ccccc1"
Reply: active

---

# Tested on: HEK293
# test_method_notes: Cytotoxic Profiling of Annotated Libraries Using Quantitative High-Throughput Screening (AID 1296008); also: nearly all actives have a fitted effect of over 60% in size; also: potency is read from the fitted curve at half-maximal effect
# condition_set: Five cell lines viability, CellTiter-Glo ATP luminescence, 48-72 h
# Procedure: Cell-based phenotypic screening is a commonly used approach to discover biological pathways, novel drug targets, chemical probes and high-quality hit-to-lead molecules. […] A pintool (Kalypsys) was used to transfer 23 nL of compound solution to the 1536-well assay plates. […] Plates were left at room temperature for 10 min before imaging the ATP-coupled luminescence using a ViewLux microplate imager (PerkinElmer, Waltham, MA).
Records with an inconclusive call do not appear. Activity calls are given as the source filed them. Calls come from the whole dose curve; as a rule, active = well fitted inhibition curve with a large enough effect; inconclusive = small, poorly fitted or top-dose-only effect; inactive = flat fitted curve, though single readings scatter.
readout_kind: Potency

Completed entries (count: 10):
molecule: CCOC(=O)NC(C)(C)Cc1ccc(Cl)cc1
experimental_system: HEK293
Potency: inactive
//
molecule: C[C@@H]1O[C@@H](O[C@@H]2C=C3CC[C@@H]4[C@H](CC[C@]5(C)[C@@H](c6ccc(=O)oc6)CC[C@]45O)[C@@]3(C)CC2)[C@H](O)[C@H](O)[C@H]1O
experimental_system: HEK293
Potency: 0.0335 µM (active)
//
molecule: C[N+]1(C)[C@@H]2CC[C@H]1CC(OC(=O)C(CO)c1ccccc1)C2 (stereo partly specified)
experimental_system: HEK293
Potency: inactive
//
molecule: COP(=O)(OC)C(O)C(Cl)(Cl)Cl (stereo unspecified)
experimental_system: HEK293
Potency: inactive
//
molecule: COc1ccc(C(=O)N2CCCC2=O)cc1
experimental_system: HEK293
Potency: inactive
//
molecule: CCCC[N+]1(C)[C@@H]2CC(OC(=O)[C@H](CO)c3ccccc3)C[C@H]1[C@@H]1O[C@@H]12 (stereo partly specified)
experimental_system: HEK293
Potency: inactive
//
molecule: CC(C)NCC(O)c1ccc(N)c(C#N)c1 (stereo unspecified)
experimental_system: HEK293
Potency: inactive
//
molecule: CC(CC(C#N)(c1ccccc1)c1ccccc1)N(C)C (stereo unspecified)
experimental_system: HEK293
Potency: 24.3 µM (active)
//
molecule: C[N+]1(CCC(C(N)=O)(c2ccccc2)c2ccccc2)CCCCC1
experimental_system: HEK293
Potency: inactive
//
molecule: CCOP(=S)(OCC)O/N=C(\C#N)c1ccccc1
experimental_system: HEK293
Potency: inactive

We now examine a further molecule.
Task item: Please report Potency for the following molecule: "Cc1ccc([N+](=O)[O-])[c]2c1[O][Hg]2"
Reply: 1.06 µM (active)
